Provenance of the data: patent US10105384B2

# Tested on: PC-3 cells
# ASSAY_REMARKS: MTT cell growth assay, PC-3 cells
# Format: cell-based, human
# CONDITION: PC-3 cells, 50 nM docetaxel 24 h, MTT
# Procedure: In brief, cells were seeded in each well of 12-well microtiter plates (30 000 to 50 000 cells per well) and allowed to attach overnight. […] To assess the effect of TCTP down-regulation on CR cell growth, PC-3 cells were treated for 1 day with 5 nM TCTP siRNA or for 2 days with 100 nM TCTP ASO. […] The effect of the inhibition of TCTP on cell survival was analyzed in PC-3 after combined ASO and docetaxel-chemotherapy treatment. […]
d = 2'-deoxy (DNA); r = 2'-OH (RNA)
OUTCOME_MEASURE: enhancement of docetaxel sensitivity

substance="5′-TGGTTCATGACAATATCGAC-3′ (all phosphorothioate, sugars by position and methylation of C not given here) [ASO14]" test_value="same effect"
substance="5′-AACTTGTTTCCTGCAGGTGA-3′ (all phosphorothioate, sugars by position and methylation of C not given here) [ASO15]" test_value="same effect"
substance="5′-AACCCGUCCGCGAUCUCCCdGdG-3′ (AACCCGUCCGCGAUCUCCCGG; siRNA; sugars from the 5' end r19 d2, backbone not given here) [TCTP siRNA, from Qiagen]" test_value="same effect"
